Where do the numbers come from? From patent US20120094909A1.

TARGET_OF_ASSAY: cynomolgus monkey PCSK9 (cynomolgus monkey, UniProt A0A7N9D9N8 150-747)
EXPERIMENTAL_PROTOCOL: FRET, competitor EGFA peptide
OBSERVABLE: pEC50
Numbers only, as −log10 of the molar value.

BINDER	QUANTITATIVE_READOUT
2382D09 (designed binder, Anti-PCSK9 Adnectin, His6-tagged) MGVSDVPRDLEVVAATPTSLLISWDAPAEGYGYYRITYGETGGNSPVQEFTVPVSKGTATISGLKPGVDYTITVYAVEFDFPGAGYYHRPISINYRTEIDKPSQHHHHHH	7.86

Pending binder:
Exercise: Given 2382H03 (designed binder, Anti-PCSK9 Adnectin, His6-tagged) MGVSDVPRDLEVVAATPTSLLISWDAPAEGAYGYYRITYGETGGNSPVQEFTVPVSKGTATISGLKPGVDYTITVYAVEYPYPFAGYYHRPISINYRTEIDKPSQHHHHHH , state its recorded pEC50.
Solution: 7.70
